# measurementTarget: human mAChR M1 (Homo sapiens)
# Sequence (P11229 whole entry): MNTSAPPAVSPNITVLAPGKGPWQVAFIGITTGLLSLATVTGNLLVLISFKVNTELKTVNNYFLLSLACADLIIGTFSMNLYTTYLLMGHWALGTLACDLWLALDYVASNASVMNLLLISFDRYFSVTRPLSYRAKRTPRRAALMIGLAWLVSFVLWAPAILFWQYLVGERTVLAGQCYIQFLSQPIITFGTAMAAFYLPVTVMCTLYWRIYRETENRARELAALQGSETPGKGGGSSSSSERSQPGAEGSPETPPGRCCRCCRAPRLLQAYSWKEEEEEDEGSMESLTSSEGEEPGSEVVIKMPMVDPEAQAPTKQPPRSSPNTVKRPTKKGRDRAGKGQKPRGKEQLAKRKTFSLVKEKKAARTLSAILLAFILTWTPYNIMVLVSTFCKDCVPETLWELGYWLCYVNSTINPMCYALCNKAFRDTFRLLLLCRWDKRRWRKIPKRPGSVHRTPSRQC
# methodNotes: mAChR M1 cell-based functional assay (calcium mobilization), agonist mode: compound alone, Emax relative to acetylcholine maximum
# experimentalParameters: human mAChR M1
readout: pEC50
Keep in mind that pEC50 stands for -log10 of concentration in molar terms.

Looking up [2H]C1([2H])c2ncccc2C(=O)N1Cc1c(F)cc(-c2cnc3nn(C)cc3c2)cc1F , I see its pEC50 listed as 5.16

Please look at the following molecule next.
Looking up [2H]C1([2H])c2ncccc2C(=O)N1Cc1c(F)cc(-c2ccc(OC3CCOC3)c3nn(C)cc23)cc1F (centres unmarked) , I see its pEC50 listed as 5.08

Values compiled from patent US20240228489A1.
